Biological target: COX-2 enzyme (human PGHS-2) isolated from insect cells (Homo sapiens, UniProt P35354)
Sequence (P35354 18-604): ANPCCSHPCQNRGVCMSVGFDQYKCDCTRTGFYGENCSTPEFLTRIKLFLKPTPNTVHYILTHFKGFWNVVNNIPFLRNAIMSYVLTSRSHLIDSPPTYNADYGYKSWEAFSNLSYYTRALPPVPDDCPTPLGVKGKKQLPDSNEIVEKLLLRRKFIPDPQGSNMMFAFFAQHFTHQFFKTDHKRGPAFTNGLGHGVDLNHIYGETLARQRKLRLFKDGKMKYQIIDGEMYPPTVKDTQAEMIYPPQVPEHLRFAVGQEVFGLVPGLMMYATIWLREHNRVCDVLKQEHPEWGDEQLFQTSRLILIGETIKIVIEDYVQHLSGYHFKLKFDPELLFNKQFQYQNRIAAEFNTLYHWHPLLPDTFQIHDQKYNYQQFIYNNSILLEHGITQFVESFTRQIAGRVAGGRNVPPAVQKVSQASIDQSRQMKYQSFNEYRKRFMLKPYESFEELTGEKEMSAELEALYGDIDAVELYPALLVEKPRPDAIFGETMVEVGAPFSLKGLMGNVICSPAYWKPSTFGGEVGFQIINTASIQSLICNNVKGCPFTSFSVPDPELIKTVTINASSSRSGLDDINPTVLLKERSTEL
Experiment: Cyclooxygenase enzyme inhibitory assay, COX-2 (initial rate of O2 uptake)
Conditions: 100 μg/ml
Assay Metric: COX-2 enzyme inhibition (%)

Compound	Assayed Target	Recorded Value
CC1=C(CO)C(=O)O[C@@H]([C@@H](C)[C@H]2CC[C@H]3[C@@H]4C[C@H]5O[C@]56[C@@H](O)[C@@H](O)CC(=O)[C@]6(C)[C@H]4CC[C@]23C)C1	COX-2 enzyme (human PGHS-2) isolated from insect cells (Homo sapiens, UniProt P35354)	35
CC1=C(CO)C(=O)O[C@@H]([C@@H](C)[C@H]2CC[C@H]3[C@@H]4CC=C5C[C@@H](O[C@@H]6O[C@H](CO[C@@H]7O[C@H](CO)[C@@H](O)[C@H](O)[C@H]7O)[C@@H](O)[C@H](O)[C@H]6O)C[C@H](O)[C@]5(C)[C@H]4CC[C@]23C)C1 [Compound 12, withanolide IV]	COX-2 enzyme (human PGHS-2) isolated from insect cells (Homo sapiens, UniProt P35354)	23

Data origin, for the record: patent US7264832B2
